biological target: T1, recombinant human EGFR extracellular domain with 6xHis (human, UniProt P00533 25-645); assay: SPR competition, competitor 1320
T1 construct: In-house produced; also called 6xHis EGFR ECD; soluble human EGFR ECD; not shown: 6xHis tag
Quick reference: % inhibition of the listed items.
Mention the unit after the number when you answer.

antibody 1257 (antibody, human IgG1, kappa, V domains shown, Chimeric IgG1 kappa) VH: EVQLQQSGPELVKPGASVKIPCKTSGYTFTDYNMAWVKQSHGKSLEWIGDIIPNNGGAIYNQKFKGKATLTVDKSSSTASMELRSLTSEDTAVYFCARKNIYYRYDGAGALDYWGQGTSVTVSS VL: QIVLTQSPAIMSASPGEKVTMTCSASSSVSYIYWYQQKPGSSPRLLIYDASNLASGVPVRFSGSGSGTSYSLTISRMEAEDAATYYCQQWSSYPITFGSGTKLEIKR :: 15%
antibody 1254 (antibody, human IgG1, kappa, V domains shown, Chimeric IgG1 kappa; also called mAb 1254) VH: EVQLVESGGGLVKPGGSLKLSCAASGFAYSTYDMSWVRQTPEKRLEWVAYISSGGDAAYYPDTVKGRFTISRDNAKNTLYLQMSSLKSEDTAMYYCARSRYGNYGDAMDYWGQGTSVTVSS VL: DVVMTQTPLSLPVSLGDQASISCRSSQSLVHSNGNTYLHWYLQKPGQSPKLLLYKVSNRFSGVPDRFSGSGSGTDFTLKISRVESEDLGVYFCSQNTHVYTFGGGTKLEIKR :: 6%

Please examine the following record next.
// antibody 1320 (antibody, human IgG1, kappa, V domains shown, Chimeric IgG1 kappa) VH: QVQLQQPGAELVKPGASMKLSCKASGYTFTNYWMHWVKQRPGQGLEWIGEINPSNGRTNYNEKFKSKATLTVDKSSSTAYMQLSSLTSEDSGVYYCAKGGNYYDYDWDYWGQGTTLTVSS VL: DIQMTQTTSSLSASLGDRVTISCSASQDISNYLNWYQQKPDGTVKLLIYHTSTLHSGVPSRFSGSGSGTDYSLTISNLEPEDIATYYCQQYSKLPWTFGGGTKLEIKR : % inhibition value = 97%
